Every entry's value here was drawn from patent US20050143927A1.

Experiment: Two-compartment PK model fitted to plasma concentration of Drug-A (Experiment-A)
Details: male, athymic nude, mouse, plasma, iv, 30 mg/kg, Vd, mean, dose 30 mg/kg iv-bolus q4dx3; mean of four mice
Endpoint Name: Vd (L/kg)
Reply with just the number (in L/kg).

# input Tell me the measured Vd of CC(=O)O[C@H]1C(=O)[C@@]2(C)[C@H]([C@H](OC(=O)c3ccccc3)[C@]3(O)C[C@H](OC(=O)[C@H](O)[C@@H](NC(=O)c4ccccc4)c4ccccc4)C(C)=C1C3(C)C)[C@]1(OC(C)=O)CO[C@@H]1C[C@@H]2O , please.
# output 0.556
